target: human Dual Specificity Protein Phosphatase 3 (DUSP3), DUSP3 (gene 1845) (UniProt P51452); assay: NVS_ENZ_hDUSP3: NovaScreen (NVS) Enzymatic Assay for human Dual Specificity Protein Phosphatase 3 (DUSP3) (AID 2283152);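 note: phosphatase activity of recombinant human DUSP3 on a fluorogenic substrate without cells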
Sequence (P51452 whole entry, looked up): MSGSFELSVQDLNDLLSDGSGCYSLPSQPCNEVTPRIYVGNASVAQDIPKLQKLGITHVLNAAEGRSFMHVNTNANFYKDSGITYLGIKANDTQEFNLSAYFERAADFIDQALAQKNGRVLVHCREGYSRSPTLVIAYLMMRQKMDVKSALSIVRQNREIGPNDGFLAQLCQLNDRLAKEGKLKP
Active and inactive are the calls of the source. Rule for the calls: active = hit-call score of the fitted dose curve at least 0.9, where 1 is the maximum; inconclusive = response in the unintended direction; inactive = score below 0.9.
I'd be grateful if you could share measured AC50 for these entries.

The value of AC50 recorded for "O=C(O)C(F)(F)C(F)(F)C(F)(F)C(F)(F)C(F)(F)C(F)(F)C(F)(F)C(F)(F)C(F)(F)F" when tested on human Dual Specificity Protein Phosphatase 3 (DUSP3), DUSP3 (gene 1845) (UniProt P51452) reads 13 µM (active)

The value of AC50 recorded for "CCCCCCCCCc1ccc(O)cc1" when tested on human Dual Specificity Protein Phosphatase 3 (DUSP3), DUSP3 (gene 1845) (UniProt P51452) reads 13.2 µM (active)

The value of AC50 recorded for "ClC1=C(Cl)[C@]2(Cl)[C@@H]3[C@@H]4C[C@@H]([C@H]5O[C@@H]45)[C@@H]3[C@@]1(Cl)C2(Cl)Cl" when tested on human Dual Specificity Protein Phosphatase 3 (DUSP3), DUSP3 (gene 1845) (UniProt P51452) reads 46.6 µM (active)

* * *

Read-out: Pyruvate Dehydrogenase Kinase 4 (PDK4), PDK4 (gene 5166)
Assay: LTEA_HepaRG_PDK4: Life Technologies and Expression Analysis (LTEA) Assay for Pyruvate Dehydrogenase Kinase 4 (PDK4) using HepaRG (AID 2283525)
Settings: mRNA level, 48 h; actives raise or lower the signal
Protocol: LTEA_HepaRG is a cell based, multiplexed-readout assay that uses HepaRG, a human liver cell line, with measurements taken at 48 hours after chemical dosing on a 96-well plate.LTEA_HepaRG_PDK4 is one of 102 assay component(s) measured in the LTEA HepaRG cell culture assay. It is a marker of Diseases associated with PDK4 including Platelet Glycoprotein Iv Deficiency and Diabetes Mellitus, Noninsulin-Dependent.Data from the assay component LTEA_HepaRG_PDK4 was analyzed into 1 endpoint. […]
The source made the active and inactive calls. Rule for the calls: active = hit-call score of the fitted dose curve at least 0.9, where 1 is the maximum; inactive = score below 0.9.
Return exactly one item of active, inactive

How did this test come out for "N#Cc1ccc(N(CC(N)=O)CC(F)(F)F)cc1C(F)(F)F" ? inactive

How did this test come out for "CCNc1nc(NC(C)C)nc(SC)n1" ? inactive

How did this test come out for "C[C@]12CCC(=O)C=C1CC[C@@H]1[C@@H]2CC[C@]2(C)C(=O)CC[C@@H]12" ? inactive

How did this test come out for "CN(C)c1nc(=O)n(C2CCCCC2)c(=O)n1C" ? inactive

How did this test come out for "CCCCCCCCOC(=O)c1ccccc1C(=O)OCCCCCCCC" ? inactive

How did this test come out for "CCOCCOC(C)=O" ? inactive

How did this test come out for "c1ccc(-c2ccccc2)cc1" ? inactive

How did this test come out for "Clc1ccc(C(Cl)(Cl)Cl)cc1" ? inactive

How did this test come out for "CCC(C)(c1ccc(O)cc1)c1ccc(O)cc1" ? inactive

How did this test come out for CCC(C)c1cc([N+](=O)[O-])cc([N+](=O)[O-])c1O (stereo not drawn) ? inactive

How did this test come out for "Nn1cnnc1" ? inactive

How did this test come out for "O=C(N[C@H]1CN2CCC1CC2)c1cc2ccoc2cn1" ? inactive

How did this test come out for "Cc1cc(-c2ccc(N)c(C)c2)ccc1N" ? active

* * *

read-out: ATP-citrate lyase (ACLY), ACLY (gene 47); test: LTEA_HepaRG_ACLY: Life Technologies and Expression Analysis (LTEA) Assay for ATP-citrate lyase (ACLY) using HepaRG (AID 2283466); settings: mRNA level, 48 h; actives raise or lower the signal
Active and inactive are the calls of the source. How the source made its calls: active means hit-call score of the fitted dose curve at least 0.9, where 1 is the maximum; inactive means score below 0.9.
Return exactly one item of class 1 for active, class 0 for inactive

How did this test come out for "C=CC(=O)NCNC(=O)C=C" ? class 1

How did this test come out for "Cc1ccccc1[N+](=O)[O-]" ? class 0

How did this test come out for "Oc1c(Cl)c(Cl)c(Cl)c(Cl)c1Cl" ? class 1

How did this test come out for "O=S(=O)(O)C(F)(F)C(F)(F)C(F)(F)C(F)(F)F" ? class 0

How did this test come out for "COc1ccc(O)c(C(C)(C)C)c1" ? class 0

How did this test come out for Clc1ccc(C(c2ccccc2Cl)C(Cl)(Cl)Cl)cc1 (stereo not given) ? class 0

How did this test come out for "COS(=O)(=O)OC" ? class 0

How did this test come out for "Cc1cccc([N+](=O)[O-])c1" ? class 0

How did this test come out for "Nn1cnnc1" ? class 0

How did this test come out for "CO/C=C(/C(=O)OC)c1ccccc1COc1cccc(C(F)(F)F)n1" ? class 0

How did this test come out for "C=CC(N)=O" ? class 0

How did this test come out for "CC(c1ccc(O)cc1)(c1ccc(O)cc1)c1ccc(O)cc1" ? class 1

How did this test come out for "c1ccc(-c2ccccc2)cc1" ? class 0

How did this test come out for "CCOC(=O)C(O)(c1ccc(Cl)cc1)c1ccc(Cl)cc1" ? class 0

How did this test come out for "CCCN(CCC)N=O" ? class 0

* * *

read-out: Transforming Growth Factor (TGFB1), TGFB1 (gene 7040); assay: LTEA_HepaRG_TGFB1: Life Technologies and Expression Analysis (LTEA) Assay for Transforming Growth Factor (TGFB1) Transporter using HepaRG (AID 2283533); settings: mRNA level, 48 h; actives raise or lower the signal
Activity calls are given as the source filed them. How the source made its calls: active means hit-call score of the fitted dose curve at least 0.9, where 1 is the maximum; inactive means score below 0.9.
Return exactly one item of True (active), False (inactive)

How did this test come out for "CCCN(CCC)N=O" ? False

How did this test come out for "Cc1ccccc1[N+](=O)[O-]" ? False

How did this test come out for "O=C(O)C(F)(F)C(F)(F)C(F)(F)C(F)(F)C(F)(F)C(F)(F)C(F)(F)C(F)(F)C(F)(F)F" ? True

How did this test come out for "Cc1ccccc1CO[C@@H]1C[C@@]2(C(C)C)CC[C@]1(C)O2" ? False

How did this test come out for "Oc1ccc(Cl)cc1Cl" ? False

How did this test come out for "CCCCCCCCCC[N+](C)(C)CCCCCCCCCC" ? False

How did this test come out for "O=S(=O)(O)C(F)(F)C(F)(F)C(F)(F)C(F)(F)F" ? False

How did this test come out for "NS(=O)(=O)C(F)(F)C(F)(F)C(F)(F)C(F)(F)C(F)(F)C(F)(F)C(F)(F)C(F)(F)F" ? True

How did this test come out for "Cc1cc2c3c(c1)C(c1ccccc1)=N[C@@H](NC(=O)c1ccncc1)C(=O)N3CC2" ? False

How did this test come out for "CCOCCOC(C)=O" ? False

How did this test come out for CCC(C)c1cc([N+](=O)[O-])cc([N+](=O)[O-])c1O (stereo not given) ? False

How did this test come out for C1CC2OC2CC1C1CO1 (stereo not given) ? False

How did this test come out for "CCCCCCCCOC(=O)c1ccccc1C(=O)OCCCCCCCC" ? False

How did this test come out for "O=S(=O)(O)C(F)(F)C(F)(F)C(F)(F)C(F)(F)C(F)(F)C(F)(F)F" ? False

How did this test come out for "COc1ccc(O)c(C(C)(C)C)c1" ? False

How did this test come out for "O=C(O)C(F)(F)C(F)(F)C(F)(F)C(F)(F)C(F)(F)C(F)(F)C(F)(F)C(F)(F)F" ? True

How did this test come out for "CC#Cc1cc(C)nc(Nc2ccccc2)n1" ? False

How did this test come out for "O=C(O)C(F)(F)C(F)(F)C(F)(F)C(F)(F)C(F)(F)F" ? False

How did this test come out for "CCC(=O)O[C@H]1CC[C@H]2[C@@H]3CCC4=CC(=O)CC[C@]4(C)[C@H]3CC[C@]12C" ? False

How did this test come out for "C=CC(N)=O" ? False

How did this test come out for "C[C@]12CCC(=O)C=C1CC[C@@H]1[C@@H]2CC[C@@]2(C)[C@H]1CC[C@]2(C)O" ? True

How did this test come out for "Cc1ccccc1O" ? False

How did this test come out for "Cc1cccc(C)c1N" ? False

How did this test come out for "ClC1=C(Cl)[C@]2(Cl)[C@@H]3[C@@H]4C[C@@H]([C@H]5O[C@@H]45)[C@@H]3[C@@]1(Cl)C2(Cl)Cl" ? False

How did this test come out for "CCC(C)(c1ccc(O)cc1)c1ccc(O)cc1" ? False

* * *

read-out: ATP-citrate lyase (ACLY), ACLY (gene 47); experiment: LTEA_HepaRG_ACLY: Life Technologies and Expression Analysis (LTEA) Assay for ATP-citrate lyase (ACLY) using HepaRG (AID 2283466); conditions: mRNA level, 48 h; actives raise or lower the signal
The source made the active and inactive calls. The calls were made as follows: active = hit-call score of the fitted dose curve at least 0.9, where 1 is the maximum; inactive = score below 0.9.
Return exactly one item of 1 for active, 0 for inactive

How did this test come out for "O=NN(c1ccccc1)c1ccccc1" ? 0

How did this test come out for "CCOCCOC(C)=O" ? 0

How did this test come out for "O=C(NC(=O)c1c(F)cccc1F)Nc1cc(Cl)c(OC(F)(F)C(F)F)c(Cl)c1" ? 0

How did this test come out for "Oc1ccc(C(c2ccc(O)cc2)(C(F)(F)F)C(F)(F)F)cc1" ? 0

How did this test come out for "Cc1ccccc1O" ? 0

How did this test come out for "Cc1cc2c3c(c1)C(c1ccccc1)=N[C@@H](NC(=O)c1ccncc1)C(=O)N3CC2" ? 1

How did this test come out for "CC#Cc1cc(C)nc(Nc2ccccc2)n1" ? 0

How did this test come out for "O=C(NC(=O)c1cc(F)c(F)cc1Cl)Nc1cc(F)ccc1N1CCC(C(=O)O)CC1" ? 0

How did this test come out for "CCNc1nc(NC(C)C)nc(SC)n1" ? 0

How did this test come out for "O=C(N[C@H]1CN2CCC1CC2)c1cc2ccoc2cn1" ? 0

How did this test come out for "CC(C)(O)C(=O)Nc1ccc([N+](=O)[O-])c(C(F)(F)F)c1" ? 0

How did this test come out for "CCOP(=S)(OCC)SCSC(C)(C)C" ? 0

How did this test come out for "C[C@]12CCC(=O)C=C1CC[C@@H]1[C@@H]2CC[C@@]2(C)[C@H]1CC[C@]2(C)O" ? 1

How did this test come out for "CCCCCCOC(=O)c1ccccc1C(=O)OCCCCCC" ? 0

How did this test come out for "O=C(O)C(F)(F)C(F)(F)C(F)(F)C(F)(F)C(F)(F)C(F)(F)C(F)(F)C(F)(F)F" ? 0

How did this test come out for "ClC1=C(Cl)[C@]2(Cl)[C@@H]3[C@@H]4C[C@@H]([C@H]5O[C@@H]45)[C@@H]3[C@@]1(Cl)C2(Cl)Cl" ? 1

How did this test come out for "O=S(=O)(O)C(F)(F)C(F)(F)C(F)(F)C(F)(F)C(F)(F)C(F)(F)F" ? 0

How did this test come out for "Clc1ccc(C(Cl)(Cl)Cl)cc1" ? 0

How did this test come out for "Cc1cc(O)ccc1Cl" ? 0

How did this test come out for "CC1=C2C[C@H]3[C@@H](CC=C4C[C@@H](O)CC[C@@]43C)[C@@H]2CC[C@]12O[C@@H]1C[C@H](C)CN[C@H]1[C@H]2C" ? 0

How did this test come out for "CCCCCCCCCC[N+](C)(C)CCCCCCCCCC" ? 0

How did this test come out for "CCC(C)(c1ccc(O)cc1)c1ccc(O)cc1" ? 0

How did this test come out for CCC(C)c1cc([N+](=O)[O-])cc([N+](=O)[O-])c1O (stereo not drawn) ? 0
